Molecular target: UniProt:Q96P20
Experiment: Scintillation Proximity (SPA) NLRP3 Assay, displacement of 3H-MCC950
Format: binding
Details: Table B, activity class; displacement of 3H-MCC950 from human NLRP3
IC50: recorded values

INSERT INTO assay_data (compound, tested_system, reported_value) VALUES
  ('C[C@H]1CCN(c2nnn[nH]2)C[C@H](NC(=O)N(C)c2ncc(C(F)(F)F)cn2)C1 (single isomer, unassigned) [30C*]', 'UniProt:Q96P20', '> 100 µM'),
  ('C[C@H]1C[C@H](NC(=O)N(C)c2ccc(OC(F)F)cc2F)[C@@H]2CC[C@H]1N2c1nnn[nH]1 (single isomer, unassigned) [57D*]', 'UniProt:Q96P20', '1 to 10 µM');

## Input For C[C@H]1C[C@@H](NC(=O)N(C)c2ccc(C(F)(F)F)cc2F)[C@@H]2CC[C@H]1N2c1nnn[nH]1 (single isomer, unassigned) [48C*] , write its IC50.
## Output 50 to 100 µM

###

IC50: recorded values
Molecular target: human NLRP3 (Homo sapiens, UniProt Q96P20)
Sequence (Q96P20 whole entry): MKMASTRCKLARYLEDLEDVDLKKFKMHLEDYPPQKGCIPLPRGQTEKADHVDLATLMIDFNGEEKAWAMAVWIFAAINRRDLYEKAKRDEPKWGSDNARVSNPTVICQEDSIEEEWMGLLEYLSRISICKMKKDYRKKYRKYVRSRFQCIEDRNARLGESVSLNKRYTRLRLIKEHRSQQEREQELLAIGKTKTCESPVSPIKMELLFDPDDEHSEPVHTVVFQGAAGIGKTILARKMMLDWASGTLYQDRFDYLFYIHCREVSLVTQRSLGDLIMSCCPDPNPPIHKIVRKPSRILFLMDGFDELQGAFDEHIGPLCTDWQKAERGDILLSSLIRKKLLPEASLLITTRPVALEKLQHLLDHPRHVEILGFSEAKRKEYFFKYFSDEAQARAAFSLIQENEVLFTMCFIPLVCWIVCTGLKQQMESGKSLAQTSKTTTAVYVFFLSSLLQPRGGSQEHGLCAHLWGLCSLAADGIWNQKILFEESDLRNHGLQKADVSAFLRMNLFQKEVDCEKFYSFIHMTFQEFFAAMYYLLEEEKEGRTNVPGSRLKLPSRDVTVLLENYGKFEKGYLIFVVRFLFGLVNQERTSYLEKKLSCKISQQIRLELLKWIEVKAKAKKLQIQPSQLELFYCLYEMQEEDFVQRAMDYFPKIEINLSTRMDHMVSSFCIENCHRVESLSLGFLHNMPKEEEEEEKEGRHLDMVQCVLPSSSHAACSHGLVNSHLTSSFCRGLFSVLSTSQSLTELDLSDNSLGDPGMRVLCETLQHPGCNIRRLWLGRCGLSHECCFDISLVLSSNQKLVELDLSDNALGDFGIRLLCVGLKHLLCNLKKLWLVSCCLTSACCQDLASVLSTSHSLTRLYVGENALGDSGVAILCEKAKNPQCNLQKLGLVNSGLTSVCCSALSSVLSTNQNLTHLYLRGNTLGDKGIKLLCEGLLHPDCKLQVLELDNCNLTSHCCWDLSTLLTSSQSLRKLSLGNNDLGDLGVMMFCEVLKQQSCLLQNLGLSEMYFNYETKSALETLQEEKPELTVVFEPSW
Test: Scintillation Proximity (SPA) NLRP3 Assay, displacement of 3H-MCC950
Type: binding
Conditions: Table B, activity class; displacement of 3H-MCC950 from human NLRP3

Some solved cases for reference:
INSERT INTO assay_data (compound, reported_metric, reported_value) VALUES
  ('C[C@@H]1CCN(c2nnn[nH]2)C[C@@H](NC(=O)N(C)c2ccc(C(F)(F)F)c(F)c2F)C1 (single isomer, unassigned) [21B*]', 'IC50', '1 to 10 µM'),
  ('C[C@@H]1C[C@H](NC(=O)N(C)c2ccc(C(F)(F)F)c(F)c2F)[C@H]2CC[C@@H]1N2c1nnn[nH]1 (single isomer, unassigned) [47B*]', 'IC50', '50 to 100 µM'),
  ('C[C@@H]1CCN(c2nnn[nH]2)C[C@@H](NC(=O)Nc2ccc(Cl)cc2F)C1 (single isomer, unassigned) [27B*]', 'IC50', '1 to 10 µM');

## Input Param request: IC50 | system human NLRP3 (Homo sapiens, UniProt Q96P20) | item `CN(C(=O)N[C@@H]1CCCN(c2nnn[nH]2)C1)c1ccc(Cl)cc1`
## Output 1 to 10 µM

## Input Param request: IC50 | system human NLRP3 (Homo sapiens, UniProt Q96P20) | item C[C@H]1CCN(c2nnn[nH]2)C[C@H](NC(=O)N(C)c2c(F)cc(OC(F)(F)F)cc2F)C1 (single isomer, unassigned) [41C*]
## Output 50 to 100 µM

## Input Param request: IC50 | system human NLRP3 (Homo sapiens, UniProt Q96P20) | item C[C@H]1CCN(c2nnn[nH]2)C[C@@H](NC(=O)N(C)c2c(F)cc(OC(F)F)cc2F)C1 (single isomer, unassigned) [19D*]
## Output 1 to 10 µM

###

Target: UniProt:Q96P20
Assay: Scintillation Proximity (SPA) NLRP3 Assay, displacement of 3H-MCC950
Type: binding
Settings: Table B, activity class; displacement of 3H-MCC950 from human NLRP3
IC50: recorded values

## Input Param request: IC50 | system UniProt:Q96P20 | item `CCN(C(=O)N[C@@H]1C[C@H](C)CN(c2nnn[nH]2)C1)c1ccc(Cl)cc1`
## Output < 1 µM

## Input Param request: IC50 | system UniProt:Q96P20 | item C[C@H]1CCN(c2nnn[nH]2)C[C@H](NC(=O)N(C)c2ccc(OC(F)(F)F)c(F)c2F)C1 (single isomer, unassigned) [26C*]
## Output > 100 µM

## Input Param request: IC50 | system UniProt:Q96P20 | item C[C@H]1CCN(c2nnn[nH]2)C[C@@H](NC(=O)N(C)c2ccc(OC(F)(F)F)c(F)c2)C1 (single isomer, unassigned) [14D*]
## Output 10 to 50 µM

## Input Param request: IC50 | system UniProt:Q96P20 | item C[C@@H]1C[C@@H](NC(=O)N(C)c2ccc(OC(F)(F)F)c(F)c2)[C@H]2CC[C@@H]1N2c1nnn[nH]1 (single isomer, unassigned) [51A*]
## Output < 1 µM

## Input Param request: IC50 | system UniProt:Q96P20 | item C[C@@H]1C[C@H](NC(=O)N(C)c2ccc(OC(F)F)cc2)[C@H]2CC[C@@H]1N2c1nnn[nH]1 (single isomer, unassigned) [42B*]
## Output 10 to 50 µM

## Input Param request: IC50 | system UniProt:Q96P20 | item C[C@@H]1C[C@@H](NC(=O)N(C)c2ccc(Cl)c(F)c2)[C@H]2CC[C@@H]1N2c1nnn[nH]1 (single isomer, unassigned) [50A*]
## Output 1 to 10 µM

## Input Param request: IC50 | system UniProt:Q96P20 | item C[C@@H]1CCN(c2nnn[nH]2)C[C@@H](NC(=O)N(C)c2ccc(Cl)nc2)C1 (single isomer, unassigned) [29B*]
## Output 1 to 10 µM

## Input Param request: IC50 | system UniProt:Q96P20 | item C[C@@H]1C[C@H](NC(=O)N(C)c2ccc(OC(F)(F)F)cc2F)[C@H]2CC[C@@H]1N2c1nnn[nH]1 (single isomer, unassigned) [56B*]
## Output > 100 µM

## Input Param request: IC50 | system UniProt:Q96P20 | item C[C@H]1CCN(c2nnn[nH]2)C[C@H](NC(=O)N(C)c2ccc(Cl)nc2)C1 (single isomer, unassigned) [29C*]
## Output 50 to 100 µM

## Input Param request: IC50 | system UniProt:Q96P20 | item C[C@H]1CCN(c2nnn[nH]2)C[C@H](NC(=O)N(C)c2ccc(OC(F)F)c(F)c2F)C1 (single isomer, unassigned) [40C*]
## Output 10 to 50 µM

## Input Param request: IC50 | system UniProt:Q96P20 | item C[C@H]1C[C@@H](NC(=O)N(C)c2ccc(OC(F)(F)F)cc2)[C@@H]2CC[C@H]1N2c1nnn[nH]1 (single isomer, unassigned) [45C*]
## Output 50 to 100 µM

## Input Param request: IC50 | system UniProt:Q96P20 | item C[C@@H]1CCN(c2nnn[nH]2)C[C@@H](NC(=O)N(C)c2cnc(C(F)(F)F)cn2)C1 (single isomer, unassigned) [32B*]
## Output 50 to 100 µM
